Consider the following molecules and their measured half-life at 25 μM readings.
- Tested on: glutathione (GSH)
- PROCEDURE DETAILS: Reactivity Profiling with Glutathione (GSH), half-life by HPLC
- EXPERIMENTAL CONDITIONS: 5 mM glutathione (GSH) in IMDM with 10% FBS
MEASURED METRIC: half-life at 25 μM

1) O=C(O)c1ccc(N(Cc2cc(C3CC3)cc(C3CC3)c2)C(=O)CN(CCc2ccc(F)cc2Cl)S(=O)(=O)c2c(F)c(F)c(F)c(F)c2F)c(OC2CC2)c1 : 0.00167 to 2.37 h
2) O=C(O)c1ccc(N(C(=O)CN(Cc2c(F)cc(F)cc2F)S(=O)(=O)c2c(F)c(F)c(F)c(F)c2F)C2CCC2)c(OC2CC2)c1 : 0.00167 to 2.37 h
3) Cc1cc(C(=O)O)ccc1N(Cc1cc(C2CC2)cc(C2CC2)c1)C(=O)CN(Cc1cnccc1C(F)(F)F)S(=O)(=O)c1c(F)c(F)c(F)c(F)c1F : 0.00167 to 2.37 h
4) CC(C)(C)c1cc(CN(C(=O)CN(Cc2ccccc2F)S(=O)(=O)c2c(F)c(F)c(F)c(F)c2F)c2ccc(C(=O)O)cc2C2CC2)cc(C2CC2)c1 : 4.12 to 9.23 h
5) COc1cc(C(=O)O)ccc1N(Cc1cc(C2CC2)cc(C(C)(C)C)c1)C(=O)CN(Cc1cccnc1C(F)(F)F)S(=O)(=O)c1c(F)c(F)c(F)c(F)c1F : 4.12 to 9.23 h
6) Cc1cc(C(=O)O)cc(C)c1N(Cc1cc(C2CC2)cc(C(C)(C)C)c1)C(=O)CN(Cc1c(F)c(F)c(F)c(F)c1F)S(=O)(=O)c1c(F)c(F)c(F)c(F)c1F : 9.23 to 1670 h
7) O=C(O)c1ccc(N(Cc2cccc(N3CCCC3)c2)C(=O)CN(Cc2ncccc2C(F)(F)F)S(=O)(=O)c2c(F)c(F)c(F)c(F)c2F)c(OC2CC2)c1 : 0.00167 to 2.37 h
8) CC(C)(C)c1cc(CN(C(=O)CN(Cc2ccc(Cl)cc2)S(=O)(=O)c2c(F)c(F)c(F)c(F)c2F)c2ccc(C(=O)O)c(F)c2)cc(C2CC2)c1 : 0.00167 to 2.37 h
9) Cc1cc(C(=O)O)ccc1N(Cc1cc(C2CC2)cc(C(C)(C)C)c1)C(=O)CN(Cc1ccccc1C#N)S(=O)(=O)c1c(F)c(F)c(F)c(F)c1F : 2.37 to 4.12 h
10) CCOc1cc(C(=O)O)ccc1N(Cc1cc(C2CC2)cc(C(C)(C)C)c1)C(=O)CN(Cc1ccccc1C#N)S(=O)(=O)c1c(F)c(F)c(F)c(F)c1F : 2.37 to 4.12 h
11) CC(C)COc1cc(CN(C(=O)CN(Cc2ccc(Cl)cc2)S(=O)(=O)c2c(F)c(F)c(F)c(F)c2F)c2ccc(C(=O)O)c(O)c2)cc(OCC2CC2)c1 : 2.37 to 4.12 h

###

- System: MV4-11 cells
- PROCEDURE DETAILS: MV4-11 Cell Cytotoxicity Assay (CellTiter-Blue, 72 h)
- Format: cell-based, human
- EXPERIMENTAL CONDITIONS: Homo sapiens; MV4-11 cells, 72 h, CellTiter-Blue; read-out: IC50- MV-4-11
pIC50: −log10 of the molar value.
MEASURED METRIC: pIC50

1) CC(C)(C)c1cc(N(C(=O)CN(Cc2ccc(Cl)cc2)S(=O)(=O)c2c(F)c(F)c(F)c(F)c2F)c2ccc(C(=O)O)cc2)cc(C(C)(C)C)c1 : 6.00 to 6.50
2) CC(C)(C)c1cc(C(=O)N(CCN(Cc2ccc(Cl)cc2)S(=O)(=O)c2c(F)c(F)c(F)c(F)c2F)c2ccc(C(=O)O)cc2)cc(C(C)(C)C)c1 : 6.00 to 6.50
3) CC(C)(C)c1cc(N(C(=O)CN(Cc2ccc(Cl)cc2)S(=O)(=O)c2c(F)c(F)c(F)c(F)c2F)c2ccc(C(=O)O)c(O)c2)cc(C(C)(C)C)c1 : 5.50 to 6.00
4) CC(C)(C)c1cccc(CN(C(=O)CN(C23CC(C2)C3)S(=O)(=O)c2c(F)c(F)c(F)c(F)c2F)c2ccc(C(=O)O)c(O)c2)c1 : 5.50 to 6.00
5) CC(C)(C)c1cc(CN(C(=O)CN(Cc2ccccc2F)S(=O)(=O)c2c(F)c(F)c(F)c(F)c2F)c2ccc(C(=O)O)c(O)c2)cc(C(C)(C)C)n1 : 4.00 to 5.50
6) CC1(C)OC(=O)c2ccc(N(Cc3cc(C4CC4)cc(C(C)(C)C)c3)C(=O)CN(Cc3ccc(Cl)cc3)S(=O)(=O)c3c(F)c(F)c(F)c(F)c3F)cc2O1 : 4.00 to 5.50
7) O=C(O)c1ccc(N(Cc2ccc3c(c2)OCCO3)C(=O)CN(Cc2ccc(Cl)cc2)S(=O)(=O)c2c(F)c(F)c(F)c(F)c2F)cc1O : 4.00 to 5.50
